Where these numbers come from: patent US20240043427A1

- tested.on: CD73 (Homo sapiens (Human), UniProt P21589)
- Sequence (P21589 27-574): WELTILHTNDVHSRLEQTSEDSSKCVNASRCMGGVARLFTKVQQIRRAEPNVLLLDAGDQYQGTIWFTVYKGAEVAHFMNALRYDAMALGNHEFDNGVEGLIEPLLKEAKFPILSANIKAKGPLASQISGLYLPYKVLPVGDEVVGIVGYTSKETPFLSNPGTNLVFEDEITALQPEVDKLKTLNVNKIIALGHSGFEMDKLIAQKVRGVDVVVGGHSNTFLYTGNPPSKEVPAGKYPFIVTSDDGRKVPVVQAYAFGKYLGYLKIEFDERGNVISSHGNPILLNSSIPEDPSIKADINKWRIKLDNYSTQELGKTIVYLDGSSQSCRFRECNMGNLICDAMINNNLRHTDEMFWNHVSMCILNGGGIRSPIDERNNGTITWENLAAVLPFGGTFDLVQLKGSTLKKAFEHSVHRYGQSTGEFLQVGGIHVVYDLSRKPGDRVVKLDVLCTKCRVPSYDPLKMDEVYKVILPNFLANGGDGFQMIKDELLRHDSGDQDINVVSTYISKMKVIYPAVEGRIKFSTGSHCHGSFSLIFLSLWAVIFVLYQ
- Type: biochemical
- test.context: 1 mM NaH2PO4 in enzyme buffer, CD73 0.3 nM, AMP 15 uM
pIC50: −log10 of the molar value.
parameter.measured: pIC50

Some solved cases for reference:
In [3]: df
Out[3]:
                                   compound  recorded_value
0  CC1(C)CN(C(=O)c2cccc([C@H]3C[C@@H]3c3cc(-c4c[nH]c(=O)[nH]c4=O)nn4ccnc34)c2)C1 (racemic)            8.42
1  O=C1N(CC(F)(F)C2CC2)c2cc([C@H]3C[C@@H]3c3cc(-c4c[nH]c(=O)[nH]c4=O)nn4ccnc34)ccc2C12CC2 (racemic)            8.76
2  O=c1[nH]cc(-c2cc([C@H]3C[C@@H]3c3cc4c(cn3)nc(C(F)(F)F)n4CC(F)(F)F)c3nccn3n2)c(=O)[nH]1 (racemic)            8.24
3  O=c1[nH]cc(-c2cc([C@H]3C[C@@H]3c3ccc(OC(F)(F)F)cn3)c3nccn3n2)c(=O)[nH]1 (racemic) [Example 372]            8.47
4  CC1(C)CN(c2cc(-c3c[nH]c(=O)[nH]c3=O)nc3nccn23)CC1(F)F            7.51
5  O=c1[nH]cc(-c2cc([C@H]3C[C@@H]3c3ccccn3)c3ncc(F)n3n2)c(=O)[nH]1 (racemic)            8.58
6  O=c1[nH]cc(-c2cc([C@H]3C[C@@H]3c3ccc4nc5n(c4c3)[C@H](C(F)(F)F)CC5)c3nccn3n2)c(=O)[nH]1            8.62
7  CN(C)C(=O)c1cccc([C@H]2C[C@@H]2c2cc(-c3c[nH]c(=O)[nH]c3=O)nn3ccnc23)c1 (racemic)            8.41

(A) O=c1[nH]cc(-c2cc(N3CC(c4ccccc4)C(F)(F)C3)c3nccn3n2)c(=O)[nH]1 (stereo not shown)
(B) CC1(C)CN(c2cc(-c3c[nH]c(=O)[nH]c3=O)nn3cc(C4(C(F)(F)F)CC4)nc23)CC1(F)F
(C) O=c1[nH]cc(-c2cc([C@H]3C[C@@H]3c3ccc(C(F)(F)F)nc3)c3nccn3n2)c(=O)[nH]1 [Example 153]
(D) O=c1[nH]cc(-c2cc([C@H]3C[C@@H]3c3cc4c(cn3)cnn4CC(F)(F)F)c3nccn3n2)c(=O)[nH]1 (racemic) [Example 591]
(E) O=c1[nH]cc(-c2cc(N3C[C@H](Oc4cc(C(F)F)ccn4)C(F)(F)C3)c3nccn3n2)c(=O)[nH]1
Q: In this exercise, place the 5 compounds in ascending sequence of their recorded pIC50. Labels, ranked as asked.
Ans: B, A, C, D, E
